B1: WDFY2 (parent)
chain: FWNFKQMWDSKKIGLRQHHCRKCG

Variants of: B1
Test: protein stability index of a GFP-peptide fusion (GPS, HEK-293T) (PSI 1-6); higher = more stable;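 also: lentivirally expressed fusions sorted by FACS into six bins by GFP to DsRed ratio, PSI derived from sequencing read proportions per bin multiplied by bin number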
Conditions: c terminus: a fixed tail appended
# protein stability index values compiled below
Number only, no unit.

>  <changes>
D9P

>  <quantity>
protein stability index

>  <result.number>
2.43

$$$$
>  <changes>
G24M

>  <quantity>
protein stability index

>  <result.number>
2.38

$$$$
>  <changes>
R16V

>  <quantity>
protein stability index

>  <result.number>
2.1

$$$$

Ask: Supply measured protein stability index of "C20H" in your reply.
Reply: 3.07

Ask: Supply measured protein stability index of "K22G" in your reply.
Reply: 1.65

Ask: Supply measured protein stability index of "K5G" in your reply.
Reply: 1.5

Ask: Supply measured protein stability index of "C20I" in your reply.
Reply: 2.01

Ask: Supply measured protein stability index of "D9W" in your reply.
Reply: 1.81

Ask: Supply measured protein stability index of "H19G" in your reply.
Reply: 2.38

Ask: Supply measured protein stability index of "S10Q" in your reply.
Reply: 2.65

Ask: Supply measured protein stability index of "C23G" in your reply.
Reply: 2.14
